Origin of values: ChEMBL document CHEMBL1129330

target: Metabotropic glutamate receptor 2 (Homo sapiens, UniProt Q14416); assay: Concentration required for the half-maximal inhibition of cAMP […] in BHK cells expressing mGluR2; format: functional, cell-based; details: bhk
Sequence (Q14416 whole entry): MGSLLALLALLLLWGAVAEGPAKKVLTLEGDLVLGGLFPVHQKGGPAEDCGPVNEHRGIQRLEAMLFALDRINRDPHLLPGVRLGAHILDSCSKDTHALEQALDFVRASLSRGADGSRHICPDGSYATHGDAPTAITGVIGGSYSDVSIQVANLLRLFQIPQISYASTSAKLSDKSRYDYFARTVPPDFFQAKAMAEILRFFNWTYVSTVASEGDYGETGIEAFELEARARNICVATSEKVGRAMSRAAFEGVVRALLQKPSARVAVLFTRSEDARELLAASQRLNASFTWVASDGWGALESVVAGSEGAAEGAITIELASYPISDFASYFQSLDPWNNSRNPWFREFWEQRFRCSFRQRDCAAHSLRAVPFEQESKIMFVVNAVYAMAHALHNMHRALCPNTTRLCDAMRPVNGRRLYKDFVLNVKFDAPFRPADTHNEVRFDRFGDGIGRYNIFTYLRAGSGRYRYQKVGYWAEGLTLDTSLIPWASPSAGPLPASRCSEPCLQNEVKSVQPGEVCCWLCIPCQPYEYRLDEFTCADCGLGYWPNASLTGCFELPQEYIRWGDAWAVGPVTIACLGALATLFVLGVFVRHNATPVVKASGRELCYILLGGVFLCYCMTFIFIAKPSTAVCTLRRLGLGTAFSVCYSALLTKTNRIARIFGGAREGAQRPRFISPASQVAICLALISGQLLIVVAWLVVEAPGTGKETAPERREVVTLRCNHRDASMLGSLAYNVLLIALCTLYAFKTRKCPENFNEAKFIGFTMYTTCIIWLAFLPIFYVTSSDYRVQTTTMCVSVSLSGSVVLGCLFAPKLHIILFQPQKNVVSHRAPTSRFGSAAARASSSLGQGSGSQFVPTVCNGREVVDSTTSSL
ENDPOINT: IC50

Q: Given N[C@@H](C(=O)O)[C@@H]1[C@H](C(=O)O)[C@H]1c1ccccc1 (stereo in doubt; 47) , respond with its IC50.
A: > 300 µM

----------
molecular target: Metabotropic glutamate receptor 2 (Homo sapiens); assay: Effective concentration of compound against forskolin-stimulated cAMP formation in BHK cells expressing mGluR2 receptor; format: functional, cell-based
pEC50: −log10 of the molar value.
ENDPOINT: pEC50

Q: Given "N[C@@H](C(=O)O)[C@@H]1[C@@H](C(=O)O)[C@@H]1c1ccccc1" , respond with its pEC50.
A: < 3.52
